assay overview: DRUGMATRIX: GABAA, Muscimol, Central radioligand binding (ligand: [3H] Muscimol)
Type: cell membranes, Rattus norvegicus, Wistar, Brain, Membrane
details: Not Active = under 50% inhibition at 10 µM

smi	Ki
CCC1(c2ccccc2)C(=O)NCNC1=O	Not Active
Nc1nc2c(ncn2COC(CO)CO)c(=O)[nH]1	Not Active
COCc1c(C(C)C)nc(C(C)C)c(/C=C/[C@@H](O)C[C@@H](O)CC(=O)O)c1-c1ccc(F)cc1	Not Active
CC(/C=C1\SC(=S)N(CC(=O)O)C1=O)=C\c1ccccc1	Not Active
O=c1[nH]cc(F)c(=O)[nH]1	Not Active
COS(C)(=O)=O	Not Active
O=C1OCCN1/N=C/c1ccc([N+](=O)[O-])o1	Not Active
NC(CO)(CO)CO	Not Active
C=C1CC[C@H](O)C/C1=C/C=C1\CCC[C@]2(C)[C@@H]([C@H](C)/C=C/[C@H](C)C(C)C)CC[C@@H]12	Not Active

All values here come from ChEMBL document CHEMBL1909046.
